Values compiled from patent US8361968B2.

molecular target: hOT7T175 (Homo sapiens, UniProt Q969F8, L364H); assay: Intracellular Ca ion level-increasing activity using FLIPR in hOT7T175/CHO; assay type: cell-based; parameters: expressed in transfected cells; host or cells: CHO/dhfr- cells, obtained from ATCC; conditions: relative, Metastin (1-54) = 1
Sequence (Q969F8 whole entry L364H): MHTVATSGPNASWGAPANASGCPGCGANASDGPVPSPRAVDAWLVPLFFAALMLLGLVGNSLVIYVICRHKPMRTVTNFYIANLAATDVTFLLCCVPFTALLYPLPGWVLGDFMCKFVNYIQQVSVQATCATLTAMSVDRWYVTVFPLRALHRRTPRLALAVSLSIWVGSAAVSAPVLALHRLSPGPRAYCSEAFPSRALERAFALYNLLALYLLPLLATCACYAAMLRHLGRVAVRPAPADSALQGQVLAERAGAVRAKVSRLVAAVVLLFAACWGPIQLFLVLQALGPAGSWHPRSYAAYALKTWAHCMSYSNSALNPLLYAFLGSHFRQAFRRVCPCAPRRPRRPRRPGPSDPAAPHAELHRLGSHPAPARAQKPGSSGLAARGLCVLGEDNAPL
Square brackets hold non-standard residues; d marks the D form. Peptide text beside a SMILES is read from it. * marks the point of attachment. Propanoyl(3-(3-pyridyl)) = O=C(CCc1cccnc1)*; Arg(Me) = CNC(=N)NCCC[C@H](N)C(=O)O; d4Pal = N[C@H](Cc1ccncc1)C(=O)O; azaGly = NNC(=O)O
Specific Activity (intracellular Ca ion level-increasing activity) less than 5 is Met; Specific Activity (intracellular Ca ion level-increasing activity) greater than or equal to 5 is Not met.

INPUT: Below 5 on Specific Activity (intracellular Ca ion level-increasing activity)? Entry CC[C@H](C)[C@H](NC(=O)[C@H](CC(N)=O)NC(=O)[C@H](N)Cc1ccc(O)cc1)C(=O)N[C@@H](CC(N)=O)C(=O)N[C@@H](CO)C(=O)N[C@@H](Cc1ccccc1)C(=O)NCC(=O)N[C@@H](CC(C)C)C(=O)N[C@@H](CCCNC(=N)NC)C(=O)N[C@@H](Cc1ccccc1)C(N)=O [Compound No. 206] (H-[dY]NINSFGL[Arg(Me)]F-NH2)
OUTPUT: Not met

INPUT: Below 5 on Specific Activity (intracellular Ca ion level-increasing activity)? Entry CNC(=N)NCCC[C@H](NC(=O)[C@H](CC(C)C)NC(=O)NNC(=O)[C@H](Cc1ccccc1)NC(=O)[C@H](CO)NC(=O)[C@H](CC(N)=O)NC(=O)CCc1cccnc1)C(=O)N[C@@H](Cc1ccccc1)C(N)=O [Compound No. 322] ({Propanoyl(3-(3-pyridyl))}-NSF[azaGly]L[Arg(Me)]F-NH2)
OUTPUT: Met

INPUT: Below 5 on Specific Activity (intracellular Ca ion level-increasing activity)? Entry CC(C)C[C@H](NC(=O)CNC(=O)[C@H](Cc1ccccc1)NC(=O)[C@H](CO)NC(=O)[C@H](CC(N)=O)NC(=O)[C@H](Cc1c[nH]c2ccccc12)NC(=O)[C@H](CC(N)=O)NC(=O)[C@H](Cc1ccc(O)cc1)NC(=O)OCC1c2ccccc2-c2ccccc21)C(=O)N[C@@H](CCCNC(=N)N)C(=O)N[C@@H](Cc1ccccc1)C(N)=O
OUTPUT: Met

INPUT: Below 5 on Specific Activity (intracellular Ca ion level-increasing activity)? Entry CNC(=N)NCCC[C@H](NC(=O)[C@H](CC(C)C)NC(=O)NNC(=O)[C@H](Cc1ccccc1)NC(=O)[C@H](CO)NC(=O)[C@H](CC(N)=O)NC(=O)[C@@H](NC(=O)[C@H](CC(N)=O)NC(=O)[C@H](N)Cc1ccc(O)cc1)C(C)C)C(=O)N[C@@H](Cc1ccccc1)C(N)=O [Compound No. 234] (H-[dY]NVNSF[azaGly]L[Arg(Me)]F-NH2; N-terminus assumed)
OUTPUT: Met

INPUT: Below 5 on Specific Activity (intracellular Ca ion level-increasing activity)? Entry CNC(=N)NCCC[C@H](NC(=O)[C@H](CC(C)C)NC(=O)NNC(=O)[C@H](Cc1ccccc1)NC(=O)[C@H](CO)NC(=O)[C@H](CC(N)=O)NC(=O)[C@@H](Cc1ccncc1)NC(=O)[C@H](CC(N)=O)NC(=O)[C@H](N)Cc1ccc(O)cc1)C(=O)N[C@@H](Cc1ccccc1)C(N)=O [Compound No. 302] (H-[dY]N[d4Pal]NSF[azaGly]L[Arg(Me)]F-NH2)
OUTPUT: Met

INPUT: Below 5 on Specific Activity (intracellular Ca ion level-increasing activity)? Entry CC(=O)N[C@@H](Cc1ccc(O)cc1)C(=O)N[C@@H](CC(N)=O)C(=O)N[C@@H](Cc1c[nH]c2ccccc12)C(=O)N[C@@H](CC(N)=O)C(=O)N[C@@H](CO)C(=O)N[C@@H](Cc1ccccc1)C(=O)NCC(=O)N[C@@H](CC(C)C)C(=O)N[C@@H](CCCNC(=N)N)C(=O)N[C@@H](Cc1ccccc1)C(N)=O
OUTPUT: Not met

INPUT: Below 5 on Specific Activity (intracellular Ca ion level-increasing activity)? Entry CNC(=N)NCCC[C@H](NC(=O)[C@H](CC(C)C)NC(=O)NNC(=O)[C@H](Cc1ccccc1)NC(=O)[C@H](CO)NC(=O)[C@H](CC(N)=O)NC(=O)[C@H](Cc1ccccc1)NC(=O)[C@@H](CC(N)=O)NC(=O)[C@H](N)Cc1ccc(O)cc1)C(=O)N[C@@H](Cc1ccccc1)C(N)=O [Compound No. 257] (H-[dY][dN]FNSF[azaGly]L[Arg(Me)]F-NH2)
OUTPUT: Met

INPUT: Below 5 on Specific Activity (intracellular Ca ion level-increasing activity)? Entry CNC(=N)NCCC[C@H](NC(=O)[C@H](CC(C)C)NC(=O)CNC(=O)[C@H](Cc1ccccc1)NC(=O)[C@@H](NC(=O)[C@H](CC(N)=O)NC(=O)[C@H](Cc1c[nH]c2ccccc12)NC(=O)[C@H](CC(N)=O)NC(=O)[C@H](N)Cc1ccc(O)cc1)[C@@H](C)O)C(=O)N[C@@H](Cc1ccccc1)C(N)=O [Compound No. 211] (H-[dY]NWNTFGL[Arg(Me)]F-NH2; N-terminus assumed)
OUTPUT: Not met
